Method: Displacement of [3H]-CP55940 from cynomolgus monkey CB2 receptor by liquid scintillation counting
Parameters: species or system Macaca fascicularis
Experimental Endpoint: Ki (nM)
Answers are plain numbers, in nM.

Exam item: Field request: Ki | item: "Cc1c2n(c(=O)c3cc(OC(=O)C(C)(C)C)cc(OC(=O)C(C)(C)C)c13)CCCC2"
Marked response: 5.4

---

Experimental Target: Cannabinoid receptor 1 (Rattus norvegicus, UniProt P20272)
Sequence (P20272 whole entry): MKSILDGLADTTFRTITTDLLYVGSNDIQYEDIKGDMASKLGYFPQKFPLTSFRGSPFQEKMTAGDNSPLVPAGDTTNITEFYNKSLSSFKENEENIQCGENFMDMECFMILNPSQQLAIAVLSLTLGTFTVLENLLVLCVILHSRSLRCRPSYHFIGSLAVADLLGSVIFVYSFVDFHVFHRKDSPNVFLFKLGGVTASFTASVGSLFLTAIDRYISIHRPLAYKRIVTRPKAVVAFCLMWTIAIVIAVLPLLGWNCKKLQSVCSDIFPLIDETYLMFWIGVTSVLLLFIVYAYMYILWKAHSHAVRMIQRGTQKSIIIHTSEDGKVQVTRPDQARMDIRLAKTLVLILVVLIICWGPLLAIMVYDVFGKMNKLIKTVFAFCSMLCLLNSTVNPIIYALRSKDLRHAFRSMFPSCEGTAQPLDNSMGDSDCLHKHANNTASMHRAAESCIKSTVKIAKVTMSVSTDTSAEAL
Method: Displacement of [3H]SR141716A from rat CB1 receptor expressed in CHO-K1 cells by liquid scintillation spectrophotometry
Assay type: cell-based
Experimental Endpoint: Ki (nM)
One number for each entry, in nM.

Exam item: Field request: Ki | item: CC1(Cc2ccccc2)COc2cc(C(=O)N3CCCCC3)ccc21 (stereo unspecified)
Marked response: 2560

---

Method: AUC (0 to 24 hrs ) in dog at 30 mg/kg
Type: ADME, organism-based, Canis lupus familiaris
Set-up: dose 30 mg/kg
Test Context: plasma
Experimental Endpoint: AUC(0-t) at 24 h (ng·h/mL)
One number for each entry, in ng·h/mL.

Exam item: Field request: AUC(0-t) at 24 h | item: Cc1nc(N2CCN(C)CC2)c2nc(-c3ccccc3Cl)n(C(C)CO)c2n1 (stereo unspecified)
Marked response: 44400

---

Method: AUC (0 to infinity) in Sprague-Dawley rat at 10 mg/kg, po by UV-HPLC analysis
Assay type: ADME, organism-based
Design: time infinity, dose 10 mg/kg, route oral
Test Context: plasma
Experimental Endpoint: AUC(0-inf) (ng·h/mL)
Numbers only, in ng·h/mL.

Exam item: Field request: AUC(0-inf) | item: CC(C)(C)NC(=O)c1nn(-c2ccc(Cl)cc2)c2c1C1CCC2C1 (configuration not stated)
Marked response: 1550

Continuing:
Exam item: Field request: AUC(0-inf) | item: CC(C)(CO)NC(=O)c1nn(-c2ccc(Cl)cc2)c2c1C1CCC2C1 (configuration not stated)
Marked response: 12000

---

Experimental Target: Cannabinoid receptor 2 (Rattus norvegicus)
Sequence (Q9QZN9 whole entry): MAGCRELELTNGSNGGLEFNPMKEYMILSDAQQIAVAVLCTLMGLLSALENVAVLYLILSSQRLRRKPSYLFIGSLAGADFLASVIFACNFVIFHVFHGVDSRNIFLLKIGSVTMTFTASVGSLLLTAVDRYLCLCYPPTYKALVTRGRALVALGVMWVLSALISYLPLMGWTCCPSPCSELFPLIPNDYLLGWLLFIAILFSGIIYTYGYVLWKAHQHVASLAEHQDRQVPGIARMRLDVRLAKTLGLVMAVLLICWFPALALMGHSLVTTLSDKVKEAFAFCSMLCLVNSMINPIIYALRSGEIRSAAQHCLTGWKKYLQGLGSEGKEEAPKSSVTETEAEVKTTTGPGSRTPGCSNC
Method: Binding affinity to rat CB2 receptor
Experimental Endpoint: Ki (nM)
Answers are plain numbers, in nM.

Exam item: Field request: Ki | item: "CC(C)(C)NC(=O)c1nn(-c2ccc(F)cc2F)c2c1[C@H]1CC[C@@H]2C1"
Marked response: 12

---

Experimental Target: Cannabinoid receptor 2 (Homo sapiens)
Sequence (P34972 whole entry): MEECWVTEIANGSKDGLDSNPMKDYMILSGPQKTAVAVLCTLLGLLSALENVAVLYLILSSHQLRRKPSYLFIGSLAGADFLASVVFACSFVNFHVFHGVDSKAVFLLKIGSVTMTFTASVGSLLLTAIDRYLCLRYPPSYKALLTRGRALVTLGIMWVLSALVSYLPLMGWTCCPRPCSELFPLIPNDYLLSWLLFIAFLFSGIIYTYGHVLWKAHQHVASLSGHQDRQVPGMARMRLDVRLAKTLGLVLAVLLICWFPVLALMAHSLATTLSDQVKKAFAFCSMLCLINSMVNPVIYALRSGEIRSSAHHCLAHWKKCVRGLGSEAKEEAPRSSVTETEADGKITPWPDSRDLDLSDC
Method: Displacement of [3H]-CP55940 from human CB2 receptor expressed in HEK293 cells after 90 mins by liquid scintillation counting
Type: cell-based
Experimental Endpoint: Ki
Hey, just the number and the unit after it is fine.

Exam item: Field request: Ki | item: "CN(C)CCNc1cnn(C2CC(C)(C)CC(C)(C)C2)c(=O)c1Br"
Marked response: 0.042 µM
